Experiment: reduced mouse 2C T cell binding to pMHC/ICAM-1 vesicles – MLPCN validation set, flow cytometry, LFA-1/ICAM-1 modulator project, pilot screen (AID 2523)
Details: 2C mouse CD8+ T cells, at 7 µM, stronger effect = lower value; measured here: CD8+/vesicle+ event percentage
Assign double positive events to each entry below.
Report the value in % with no unit label.

Q: Find the recorded double positive events belonging to "CCC(=O)c1ccc(OCc2ccc(C(=O)OC)cc2)cc1" and report it.
Ans: 54.8

Q: Find the recorded double positive events belonging to "Cc1ccc2c(CC(=O)O)coc2c1" and report it.
Ans: 61.6

Q: Find the recorded double positive events belonging to "O=c1c(C(c2ccccc2)c2c(O)sc3ccccc3c2=O)c(O)sc2ccccc12" and report it.
Ans: 71.3

Q: Find the recorded double positive events belonging to COc1ccc(/C=C/C(=O)NC(=S)NN2CCCCC2c2cccnc2)cc1 (stereo not given) and report it.
Ans: 66.3

Q: Find the recorded double positive events belonging to "C[C@H]1C[C@@H]2[C@H]([C@@H](O)C[C@@]3(C)[C@H]2CC[C@]3(O)C(=O)CO)[C@@]2(C)C=CC(=O)C=C12" and report it.
Ans: 77.3

---

Target: Cell division control protein 42 homolog (Homo sapiens) (UniProt P60953)
Sequence (P60953 whole entry, looked up): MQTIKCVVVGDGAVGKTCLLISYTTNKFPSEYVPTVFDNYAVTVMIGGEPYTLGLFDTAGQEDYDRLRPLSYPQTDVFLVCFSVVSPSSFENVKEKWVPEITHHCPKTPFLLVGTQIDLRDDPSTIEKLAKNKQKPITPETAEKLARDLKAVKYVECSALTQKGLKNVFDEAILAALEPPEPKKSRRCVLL
Experiment: inhibition of fluorescent GTP binding to wildtype Cdc42 – biochemical, multiplex bead flow cytometry, Bodipy-FL-GTP, dose response (AID 1334)
Conditions: bead-based flow cytometry, Bodipy-FL-GTP binding to GST-Cdc42; at 100 µM (top of the series) unless noted
Potency and affinity values are given separately.
OBSERVABLE: fluorescence, percent of control (lower = inhibition) (%)
Report the value in % with no unit label.

Q: Find the recorded fluorescence, percent of control (lower = inhibition) belonging to CC(=O)NC1CC2CCCC(C1)N2C(=O)Nc1ccccc1 (stereo unspecified) and report it.
Ans: 88.1

Q: Find the recorded fluorescence, percent of control (lower = inhibition) belonging to "O=[N+]([O-])c1cc2oc3c(c2c(C=NCc2ccccc2)c1O)CCCC3" and report it.
Ans: 44.5

Q: Find the recorded fluorescence, percent of control (lower = inhibition) belonging to "O=C(O)c1cn(CCOc2ccccc2)c2ccccc12" and report it.
Ans: 76.5

Q: Find the recorded fluorescence, percent of control (lower = inhibition) belonging to "Cc1cc(C)cc(OCCSc2nc3ccccc3n2CC(=O)O)c1" and report it.
Ans: 58.4

Q: Find the recorded fluorescence, percent of control (lower = inhibition) belonging to N#CC(c1ccc(Cl)nn1)c1ccc(Cl)cc1Cl (stereo unspecified) and report it.
Ans: 34.5

Q: Find the recorded fluorescence, percent of control (lower = inhibition) belonging to "O=C(N/N=C/c1ccc(-c2ccccc2[N+](=O)[O-])o1)c1cncc(Br)c1" and report it.
Ans: 44.2

Q: Find the recorded fluorescence, percent of control (lower = inhibition) belonging to CCC(C)NC(=O)CSc1nc2n[nH]c(C)c2c(=N)n1-c1ccc(OC)cc1 (stereo unspecified) and report it.
Ans: 36

Q: Find the recorded fluorescence, percent of control (lower = inhibition) belonging to "Cc1ccc(C(C)C)c(OCc2ccccc2C(=O)O)c1" and report it.
Ans: 73.5

Q: Find the recorded fluorescence, percent of control (lower = inhibition) belonging to "CN1CCc2nc3ccc(Cl)cc3c(-c3ccccc3Cl)c2C1" and report it.
Ans: 37.3

Q: Find the recorded fluorescence, percent of control (lower = inhibition) belonging to "Cc1ccc(N=Nc2c(N)[nH]n3c(=O)c4c(nc23)CCCC4)cc1" and report it.
Ans: 31.3

Q: Find the recorded fluorescence, percent of control (lower = inhibition) belonging to "Cc1cc(C(=O)Oc2ccccc2C(=O)O)c(C)o1" and report it.
Ans: 61.1
